Data credit: the supplement of paper PMC10567573

B1: STK38L (parent)
chain: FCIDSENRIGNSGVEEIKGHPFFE

Variants of: B1
Test: protein stability index of a GFP-peptide fusion (GPS, HEK-293T) (PSI 1-6); higher = more stable;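 further: lentivirally expressed fusions sorted by FACS into six bins by GFP to DsRed ratio, PSI derived from sequencing read proportions per bin multiplied by bin number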
Settings: c terminus: a fixed tail appended
Recorded Endpoint: protein stability index
Give the figure by itself; no unit, no explanation.

Look over these answered cases.
> print(dat)
   mutation.spec  value
1           F22I   3.65
2           G10H   2.71
3           I17T   3.17
4            S5Y   1.88
5           G10Y   1.79

If you can, please state the reported protein stability index value of D4P .
3.47

// lookup protein stability index for I17D
3.1

Can you share its protein stability index? I mean this variant: S5C
2

Look up protein stability index: I3S
2.3

Requested read-out: protein stability index. Entry: R8C
2.17

Please report the recorded protein stability index for G19F .
1.8

Any idea what protein stability index was measured for P21D ?
4.22

What value of protein stability index has been recorded for this entry: S12E
2.52

I would be grateful if you could share the reported protein stability index for D4F .
1.46
